Consider compounds characterized by their Kd with UniProt Q9Y572.
Sequence (Q9Y572 whole entry): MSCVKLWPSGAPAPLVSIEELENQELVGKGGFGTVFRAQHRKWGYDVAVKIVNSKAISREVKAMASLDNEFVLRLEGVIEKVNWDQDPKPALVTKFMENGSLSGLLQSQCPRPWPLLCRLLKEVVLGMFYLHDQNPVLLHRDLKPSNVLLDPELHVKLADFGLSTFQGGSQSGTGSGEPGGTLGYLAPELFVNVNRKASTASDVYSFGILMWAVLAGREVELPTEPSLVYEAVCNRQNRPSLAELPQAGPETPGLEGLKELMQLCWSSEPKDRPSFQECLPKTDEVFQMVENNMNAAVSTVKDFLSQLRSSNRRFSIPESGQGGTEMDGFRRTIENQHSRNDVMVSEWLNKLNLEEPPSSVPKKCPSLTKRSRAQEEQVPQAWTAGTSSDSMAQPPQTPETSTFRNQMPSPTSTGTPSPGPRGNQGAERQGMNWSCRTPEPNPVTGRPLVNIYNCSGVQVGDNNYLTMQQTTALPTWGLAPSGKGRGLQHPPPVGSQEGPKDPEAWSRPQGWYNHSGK

Nc1ncc(-c2cnn(C3CCOCC3)c2)c2occ(-c3ccc(NS(=O)(=O)CC(F)(F)F)c(OCc4ccc(F)cc4)c3)c12 [Compound 11] ... > 10 µM
C[C@H](Oc1cc(-c2cnn3c(-c4cnn(C5CCOCC5)c4)cnc(N)c23)ccc1NS(=O)(=O)C(F)F)c1ccc(F)cc1 [Compound 36] ... > 10 µM

Now turn to the next compound.
Exam item: I am curious: what Kd value has been reported for C[C@H](Oc1cc(-c2nn(C)c3c(-c4cccnc4)cnc(N)c23)ccc1NS(=O)(=O)C(F)F)c1ccc(F)cc1 [Compound 25] ?
Marked response: > 10 µM

###

target: endogenous MLKL in MDF (Mus musculus (Mouse), UniProt Q9D2Y4); experiment: Degradation assay: endogenous MLKL in MDF (western blot); conditions: MDF cells, 24 h incubation with compound, MLKL adjusted for loading with GAPDH, normalized to DMSO only control, read-out: Degradation of endogenous MLKL in MDF (DC50 cell-based assay)
Sequence (Q9D2Y4 whole entry): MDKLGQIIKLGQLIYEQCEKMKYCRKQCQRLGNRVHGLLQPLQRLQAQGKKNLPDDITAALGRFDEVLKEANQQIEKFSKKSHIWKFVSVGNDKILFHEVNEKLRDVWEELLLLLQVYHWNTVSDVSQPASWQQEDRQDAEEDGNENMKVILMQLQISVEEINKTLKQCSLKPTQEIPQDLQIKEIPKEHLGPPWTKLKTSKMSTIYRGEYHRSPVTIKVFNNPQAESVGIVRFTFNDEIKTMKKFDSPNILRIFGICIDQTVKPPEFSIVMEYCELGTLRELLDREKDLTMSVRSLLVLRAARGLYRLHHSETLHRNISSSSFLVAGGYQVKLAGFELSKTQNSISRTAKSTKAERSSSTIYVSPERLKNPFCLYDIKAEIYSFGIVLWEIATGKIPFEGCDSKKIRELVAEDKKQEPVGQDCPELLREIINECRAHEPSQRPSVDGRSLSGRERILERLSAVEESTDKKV
property: DC50

CN[C@@H](C)C(=O)N[C@H](C(=O)N1CC(NC(=O)CCCCCCCCn2cc(-c3cnc(N)c4c(-c5ccc(NS(=O)(=O)C(F)F)c(O[C@@H](C)c6ccc(F)cc6)c5)nn(C)c34)cn2)C[C@H]1C(=O)Nc1c(F)cccc1F)C(C)(C)C (stereo partly drawn) [Compound 1090] ... 1000 to 10000 nM

Exam item: I am curious: what DC50 value has been reported for C[C@H](Oc1cc(-c2nn(C)c3c(-c4cnn(C5CCC(C(=O)N6CC(Nc7cccc8c7C(=O)N(C7CCC(=O)NC7=O)C8=O)C6)CC5)c4)cnc(N)c23)ccc1NS(=O)(=O)C(F)F)c1ccc(F)cc1 (stereo partly drawn) [Compound 1133] ?
Marked response: < 1000 nM

Exam item: I am curious: what DC50 value has been reported for C[C@H](Oc1cc(-c2nn(C)c3c(-c4cnn(C5CCN(C(=O)OCC6CCN(c7cccc8c7C(=O)N(C7CCC(=O)NC7=O)C8=O)CC6)CC5)c4)cnc(N)c23)ccc1NS(=O)(=O)C(F)F)c1ccc(F)cc1 (stereo partly drawn) [Compound 1105] ?
Marked response: < 1000 nM

###

molecular target: human MLKL (full length) (Homo sapiens (Human)); assay: KINOMEscan binding assay, human MLKL (full length); details: hMLKL, Table 25; read-out: MLKL (KD)
// Kd lookup, one value per entry

C[C@H](Oc1cc(-c2nn(C)c3c(-c4cnn(C5CCN(C(=O)[C@H]6C[C@H](Nc7cccc8c7C(=O)N(C7CCC(=O)NC7=O)C8=O)C6)C6(CC6)C5)c4)cnc(N)c23)ccc1NS(=O)(=O)C(F)F)c1ccc(F)cc1 (some centres unmarked) ... 10 to 1000 nM
C[C@H](Oc1cc(-c2nn(C)c3c(-c4cnn(C5CCN(C(=O)[C@H]6C[C@H](Nc7ccc8c(c7)C(=O)N(C7CCC(=O)NC7=O)C8=O)C6)CC5)c4)cnc(N)c23)ccc1NS(=O)(=O)C(F)F)c1ccc(F)cc1 (some centres unmarked) ... < 10 nM
CCS(=O)(=O)Nc1ccc(-c2nn(C)c3c(-c4cnn(CCCCCCC(=O)N[C@H](C(=O)N5C[C@H](O)C[C@H]5C(=O)NCc5ccc(-c6scnc6C)cc5)C(C)(C)C)c4)cnc(N)c23)cc1 ... 10 to 1000 nM

Exam item: Item: CCS(=O)(=O)Nc1ccc(-c2nn(C)c3c(-c4cnn(CCCCCCCOc5cccc6c5C(=O)N(C5CCC(=O)NC5=O)C6=O)c4)cnc(N)c23)cc1F (centres unmarked) Test system: human MLKL (full length) (Homo sapiens (Human)) Read-out: Kd Value: ?
Marked response: < 10 nM

Exam item: Item: CCS(=O)(=O)Nc1ccc(-c2nn(C)c3c(-c4cnn(C5CCN(C(=O)[C@H]6C[C@H](Nc7cccc8c7C(=O)N(C7CCC(=O)NC7=O)C8=O)C6)CC5)c4)cnc(N)c23)cc1F (some centres unmarked) Test system: human MLKL (full length) (Homo sapiens (Human)) Read-out: Kd Value: ?
Marked response: < 10 nM

###

biological target: UniProtKB Q8NB16; experiment: KINOMEscan binding assay, human MLKL (full length); conditions: hMLKL, Table 25; read-out: MLKL (KD)
pKd: −log10 of the molar value.
property: pKd

Some compounds with recorded pKd:
Cc1ncsc1-c1ccc(CNC(=O)[C@@H]2C[C@H](O)CN2C(=O)[C@@H](NC(=O)COCCOCCn2cc(-c3cnc(N)c4c(-c5ccc(NS(=O)(=O)C(F)F)c(O[C@@H](C)c6ccc(F)cc6)c5)nn(C)c34)cn2)C(C)(C)C)cc1 ... 6.00 to 8.00
Cc1ncsc1-c1ccc(CNC(=O)[C@@H]2C[C@@H](O)CN2C(=O)[C@@H](NC(=O)COCCOCCn2cc(-c3cnc(N)c4c(-c5ccc(NS(=O)(=O)C(F)F)cc5)nn(C)c34)cn2)C(C)(C)C)cc1 ... > 8.00
C[C@H](Oc1cc(-c2nn(C)c3c(-c4cnn(C5CCN(C(=O)c6ccc(CNc7cccc8c7C(=O)N(C7CCC(=O)NC7=O)C8=O)cc6)CC5)c4)cnc(N)c23)ccc1NS(=O)(=O)C(F)F)c1ccc(F)cc1 (some centres unmarked) ... 6.00 to 8.00
C[C@H](Oc1cc(-c2nn(C)c3c(-c4cnn(C5CCN(C(=O)OCC6CCN(c7cccc8c7C(=O)N(C7CCC(=O)NC7=O)C8=O)CC6)CC5)c4)cnc(N)c23)ccc1NS(=O)(=O)C(F)F)c1ccc(F)cc1 (some centres unmarked) ... 6.00 to 8.00
C[C@H](Oc1cc(-c2nn(C)c3c(C#CCCCCCCNC(=O)COc4cccc5c4C(=O)N(C4CCC(=O)NC4=O)C5=O)cnc(N)c23)ccc1NS(=O)(=O)C(F)F)c1ccc(F)cc1 (some centres unmarked) ... > 8.00
C[C@H](Oc1cc(-c2nn(C)c3c(-c4cnn(C5CCN(C(=O)CC6CN(c7cccc8c7C(=O)N(C7CCC(=O)NC7=O)C8=O)CCO6)CC5)c4)cnc(N)c23)ccc1NS(=O)(=O)C(F)F)c1ccc(F)cc1 (some centres unmarked) ... > 8.00

Exam item: I am curious: what pKd value has been reported for C[C@H](Oc1cc(-c2nn(C)c3c(-c4cnn(C5CCN(C(=O)C6CCC(c7cccc8c7C(=O)N(C7CCC(=O)NC7=O)C8=O)CC6)CC5)c4)cnc(N)c23)ccc1NS(=O)(=O)C(F)F)c1ccc(F)cc1 (some centres unmarked) ?
Marked response: 6.00 to 8.00

Exam item: I am curious: what pKd value has been reported for C[C@H](Oc1cc(-c2nn(C)c3c(-c4cnn(C5CCN(C(=O)c6ccc7c(c6)CN(C6CCC(=O)NC6=O)C7=O)CC5)c4)cnc(N)c23)ccc1NS(=O)(=O)C(F)F)c1ccc(F)cc1 (some centres unmarked) ?
Marked response: > 8.00

Exam item: I am curious: what pKd value has been reported for C[C@H](Oc1cc(-c2nn(C)c3c(-c4cnn(C5CCN(C(=O)[C@H]6C[C@@H]6C6CCN(c7cccc8c7C(=O)N(C7CCC(=O)NC7=O)C8=O)CC6)CC5)c4)cnc(N)c23)ccc1NS(=O)(=O)C(F)F)c1ccc(F)cc1 (stereo in doubt) ?
Marked response: 6.00 to 8.00

###

// pKd lookup, one value per entry
molecular target: human MLKL (full length) (Homo sapiens (Human), UniProt Q8NB16); test: KINOMEscan binding assay, human MLKL (full length); settings: hMLKL, Table 25; read-out: MLKL (KD)
Sequence (Q8NB16 whole entry): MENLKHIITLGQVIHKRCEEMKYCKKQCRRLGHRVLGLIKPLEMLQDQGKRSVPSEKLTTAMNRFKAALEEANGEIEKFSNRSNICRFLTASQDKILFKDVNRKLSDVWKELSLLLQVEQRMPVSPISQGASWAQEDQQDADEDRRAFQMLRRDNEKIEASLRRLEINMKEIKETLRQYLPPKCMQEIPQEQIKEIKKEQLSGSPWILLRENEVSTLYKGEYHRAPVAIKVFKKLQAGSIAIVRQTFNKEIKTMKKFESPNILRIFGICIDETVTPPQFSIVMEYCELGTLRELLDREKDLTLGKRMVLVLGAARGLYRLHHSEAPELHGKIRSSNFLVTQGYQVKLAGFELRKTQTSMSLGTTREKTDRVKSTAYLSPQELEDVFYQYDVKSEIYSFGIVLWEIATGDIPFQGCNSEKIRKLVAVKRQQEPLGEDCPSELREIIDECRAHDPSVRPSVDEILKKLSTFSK
pKd: −log10 of the molar value.

Some compounds with recorded pKd:
C[C@H](Oc1cc(-c2nn(C)c3c(-c4cnn(C5CCN(C(=O)[C@H]6C[C@H]6C6CCN(c7cccc8c7C(=O)N(C7CCC(=O)NC7=O)C8=O)CC6)CC5)c4)cnc(N)c23)ccc1NS(=O)(=O)C(F)F)c1ccc(F)cc1 (stereo in doubt) [Compound 1129] ... 6.00 to 8.00
C[C@H](Oc1cc(-c2nn(C)c3c(-c4cnn(C5CCN(C(=O)CC6CN(c7cccc8c7C(=O)N(C7CCC(=O)NC7=O)C8=O)C6)CC5)c4)cnc(N)c23)ccc1NS(=O)(=O)C(F)F)c1ccc(F)cc1 (stereo partly drawn) [Compound 1112] ... > 8.00
C[C@H](Oc1cc(-c2nn(C)c3c(-c4cnn(C5CCC(C(=O)N6CCN(c7cccc8c7C(=O)N(C7CCC(=O)NC7=O)C8=O)CC6)N(C)C5)c4)cnc(N)c23)ccc1NS(=O)(=O)C(F)F)c1ccc(F)cc1 (stereo partly drawn) [Compound 1121] ... > 8.00

Exam item: I am curious: what pKd value has been reported for Cn1nc(-c2ccc(NS(=O)(=O)C(F)F)c(F)c2)c2c(N)ncc(-c3cnn(C4CCN(C(=O)[C@H]5C[C@H](Nc6cccc7c6C(=O)N(C6CCC(=O)NC6=O)C7=O)C5)CC4)c3)c21 (stereo partly drawn) [Compound 1114] ?
Marked response: > 8.00

Exam item: I am curious: what pKd value has been reported for C[C@H](Oc1cc(-c2nn(C)c3c(-c4cnn(C5CCN(C(=O)c6ccc7c(N8CCC(=O)NC8=O)coc7c6)CC5)c4)cnc(N)c23)ccc1NS(=O)(=O)C(F)F)c1ccc(F)cc1 [Compound 1117] ?
Marked response: > 8.00

Exam item: I am curious: what pKd value has been reported for C[C@H](Oc1cc(-c2nn(C)c3c(-c4cnn(CCCCCCCOc5cccc6c5C(=O)N(C5CCC(=O)NC5=O)C6=O)c4)cnc(N)c23)ccc1NS(=O)(=O)C(F)F)c1ccc(F)cc1 (stereo partly drawn) [Compound 1031] ?
Marked response: 6.00 to 8.00

Exam item: I am curious: what pKd value has been reported for CN[C@@H](C)C(=O)N[C@H](C(=O)N1C[C@H](NC(=O)COCCn2cc(-c3cnc(N)c4c(-c5ccc(NS(=O)(=O)C(F)F)c(O[C@@H](C)c6ccc(F)cc6)c5)nn(C)c34)cn2)C[C@H]1C(=O)Nc1c(F)cccc1F)C(C)(C)C [Compound 1089] ?
Marked response: > 8.00

Exam item: I am curious: what pKd value has been reported for Cc1ncsc1-c1ccc(CNC(=O)[C@@H]2C[C@@H](O)CN2C(=O)[C@@H](NC(=O)CCCCCCn2cc(-c3cnc(N)c4c(-c5ccc(NS(=O)(=O)C(F)F)cc5)nn(C)c34)cn2)C(C)(C)C)cc1 [Compound 1022] ?
Marked response: > 8.00

Exam item: I am curious: what pKd value has been reported for C[C@H](Oc1cc(-c2nn(C)c3c(-c4cnn(C5CCN(Cc6ccc(CNc7cccc8c7C(=O)N(C7CCC(=O)NC7=O)C8=O)cc6)CC5)c4)cnc(N)c23)ccc1NS(=O)(=O)C(F)F)c1ccc(F)cc1 (stereo partly drawn) [Compound 1115] ?
Marked response: 6.00 to 8.00
